targetSystem: UniProt P08172
Sequence (P08172 whole entry): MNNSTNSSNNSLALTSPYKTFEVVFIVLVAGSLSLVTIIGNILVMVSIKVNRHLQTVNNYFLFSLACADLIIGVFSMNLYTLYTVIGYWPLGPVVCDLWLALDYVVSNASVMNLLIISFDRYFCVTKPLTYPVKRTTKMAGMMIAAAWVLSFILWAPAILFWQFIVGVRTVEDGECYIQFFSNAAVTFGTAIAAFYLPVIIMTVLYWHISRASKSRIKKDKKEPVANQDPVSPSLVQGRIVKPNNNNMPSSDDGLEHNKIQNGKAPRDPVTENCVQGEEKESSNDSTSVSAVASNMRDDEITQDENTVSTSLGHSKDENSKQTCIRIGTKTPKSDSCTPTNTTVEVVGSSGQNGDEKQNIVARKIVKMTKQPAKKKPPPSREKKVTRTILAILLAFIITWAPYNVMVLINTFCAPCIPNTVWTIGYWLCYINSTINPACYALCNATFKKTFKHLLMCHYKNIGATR
experimentalProtocol: Activation of human cloned muscarinic M2 receptor expressed in CHO-K1 cells by Calcium flux assay
readoutName: pEC50
Please report pEC50 as the negative decimal logarithm of the molar concentration, giving only the number.

-- ask Requested read-out: pEC50. Entry: `CCOc1ccccc1C1CCN([C@@H]2CCC3(C2)CN(C(=O)C2COC2)C3)CC1`
-- reply 6.68
